Molecular target: 5-HT3AB receptor (Homo sapiens, UniProt O95264+P46098, O95264:E122Q/P46098:E124Q)
Sequence (P46098 24-478 E124Q, one chain of several): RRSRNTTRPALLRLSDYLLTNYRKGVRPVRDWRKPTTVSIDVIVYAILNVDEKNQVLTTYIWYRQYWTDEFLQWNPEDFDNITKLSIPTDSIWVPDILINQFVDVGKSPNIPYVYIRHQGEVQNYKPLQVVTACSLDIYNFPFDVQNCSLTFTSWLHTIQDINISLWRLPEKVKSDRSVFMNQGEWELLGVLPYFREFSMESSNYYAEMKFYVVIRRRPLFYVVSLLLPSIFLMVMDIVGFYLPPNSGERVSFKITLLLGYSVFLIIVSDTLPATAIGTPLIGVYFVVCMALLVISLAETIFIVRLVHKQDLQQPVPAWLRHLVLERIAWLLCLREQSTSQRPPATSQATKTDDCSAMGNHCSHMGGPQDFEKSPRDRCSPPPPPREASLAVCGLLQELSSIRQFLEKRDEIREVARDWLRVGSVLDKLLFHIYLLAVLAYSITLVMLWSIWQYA
Assay: two-electrode voltage clamp, Xenopus oocytes
Assay type: cell-based
measure: EC50
# answer = value followed by unit

Data request: Give EC50 for the following compound: N=C(N)NC(=N)Nc1cccc(Cl)c1
Data returned: 2400 nM

###

Biological target: 5-HT3AB receptor (Homo sapiens, UniProt O95264+P46098, O95264:E122Q)
Sequence (P46098 24-478): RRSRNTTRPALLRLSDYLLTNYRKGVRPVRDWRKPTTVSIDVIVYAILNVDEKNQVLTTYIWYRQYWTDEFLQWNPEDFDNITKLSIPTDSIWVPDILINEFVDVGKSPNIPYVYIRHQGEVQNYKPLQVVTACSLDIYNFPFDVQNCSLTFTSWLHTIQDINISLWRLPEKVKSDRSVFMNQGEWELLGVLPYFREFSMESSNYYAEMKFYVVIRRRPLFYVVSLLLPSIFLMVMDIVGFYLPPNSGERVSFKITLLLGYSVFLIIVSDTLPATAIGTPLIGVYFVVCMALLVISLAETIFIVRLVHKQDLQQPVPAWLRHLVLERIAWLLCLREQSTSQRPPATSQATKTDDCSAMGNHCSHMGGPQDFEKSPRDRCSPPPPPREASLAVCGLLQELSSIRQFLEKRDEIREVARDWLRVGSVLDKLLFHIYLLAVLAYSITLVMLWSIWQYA
Sequence (O95264 22-441 E122Q): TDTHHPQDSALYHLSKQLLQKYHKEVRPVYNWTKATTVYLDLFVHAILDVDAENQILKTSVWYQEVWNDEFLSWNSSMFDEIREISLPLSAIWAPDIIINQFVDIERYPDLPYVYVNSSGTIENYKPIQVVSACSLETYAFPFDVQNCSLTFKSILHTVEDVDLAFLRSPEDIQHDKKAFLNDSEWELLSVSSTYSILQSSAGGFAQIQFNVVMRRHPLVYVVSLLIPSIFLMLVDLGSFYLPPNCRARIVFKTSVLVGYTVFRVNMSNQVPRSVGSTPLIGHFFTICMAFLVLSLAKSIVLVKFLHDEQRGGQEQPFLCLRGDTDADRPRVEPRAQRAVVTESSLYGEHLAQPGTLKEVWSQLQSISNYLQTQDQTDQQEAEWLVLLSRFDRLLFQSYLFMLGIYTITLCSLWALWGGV
Assay: two-electrode voltage clamp, Xenopus oocytes
measure: EC50 (nM)
I only need the number, in nM, no unit after it.

Data request: Give EC50 for N=C(N)NC(=N)Nc1cccc(Cl)c1
Data returned: 2300
